molecular target: NADPH oxidase 5 (Homo sapiens); test: compounds shifting NOX5 Amplex Red fluorescence – cell-based, HEK293-NOX5, NOX inhibitor project, primary screen (AID 1161); settings: HEK293-NOX5, ionomycin, 45 min, higher = more signal
OBSERVED_PROPERTY: z-score

Task: I'm curious: which z-score was measured for `CCCC=C(CCC)[C@@H](NC(=O)OCC(C)C)c1ccccc1` tested on NADPH oxidase 5 (Homo sapiens)?
Result: -2.7

Task: Further, for COc1ccc(C(O)C2C=CC3C(=O)N(C)C(=O)C3N2N(c2ccccc2)c2ccccc2)c2ccccc12 (centres undefined) ?
Result: -0.716

Task: Next compound: `COCCCNC(=O)[C@@]1(CCS(=O)(=O)c2ccccc2)N=C(c2ccc(OCCCO)cc2)O[C@H]1c1ccccc1N=[N+]=[N-]`
Result: -2.11

Task: Again, but for `C=C(/C(=C/C[C@H](OC(C)=O)c1ccc(OCCO)cc1)c1cc(C(=O)OC)ccc1OC)C(C)C`
Result: -1.42

====

molecular target: NADPH oxidase 2 (Homo sapiens); test: compounds shifting NOX2 Amplex Red fluorescence – cell-based, HEK293-NOX2, PMA-stimulated, NOX inhibitor project, primary screen (AID 1159); settings: 45 min, higher = more signal, called active from +8 up or from −8 down; also: test concentration not given here
OBSERVED_PROPERTY: z-score
I only need the number, thanks.

Task: # lookup: z-score of O=C1NC(=O)C2C1C=CC(C(O)c1ccc(I)cc1)N2Nc1ccccn1 (stereo not drawn)
Result: -1.16

Task: Let us now turn to `CC(C)NC(=O)[C@@]1(Cc2ccccc2I)c2ccccc2C(=O)N(Cc2ccccc2Cl)[C@H]1c1ccc(CO)cc1`
Result: 0.284

Task: Please do the same for CCCCN1CC=CC23O[C@@H]4/C=C\CCCOC(=O)C4[C@H]2C(=O)N(CCCCCO)[C@@H]3C1=O (stereo partly drawn) as well.
Result: 1.07

Task: What about this compound? CCC(CC)C(O)C1C=CC2C(=O)N(c3ccccc3)C(=O)C2N1Nc1ccccc1 (stereo not drawn)
Result: -0.588

Task: Request: O=C1C2C=CC(C(O)C=Cc3ccc([N+](=O)[O-])cc3)N(n3cnnc3)C2C(=O)N1Cc1ccccc1 (stereo not drawn)
Result: -0.526

Task: Please do the same for `C=C(CCCC)/C(=C/C[C@@H](OC(C)=O)c1cccc(OCCO)c1)c1cnc2ccccc2c1` as well.
Result: -2.25

Task: Subsequent entry: `O=C(CS)NCCCCCNC(=O)[C@@H]1C[C@@H]2C(=O)NCC(=O)N2[C@@H]1c1ccc(O)cc1`
Result: 1.18

Task: O=C1C2C=CC(C(O)c3cc(C(F)(F)F)cc(C(F)(F)F)c3)N(Nc3ccccc3)C2C(=O)N1c1ccccc1 (stereo not drawn) ?
Result: 0.376

====

target: Neurogenic locus notch homolog protein 2 (Homo sapiens); test: small molecules binding Notch2 protein – biochemical, small-molecule microarray, 635 nm fluorescence, stem cell growth factors, primary screen (AID 1073); conditions: higher = more signal
OBSERVED_PROPERTY: composite z-score
Just the number, please, no unit attached.

Task: Endpoint output: composite z-score of `O=C1O[C@@H](c2ccccc2)[C@@H](c2ccccc2)N2[C@@H](c3ccc(OCCO)cc3)[C@]3(C(=O)Nc4ccc(C#CC5=CCCCC5)cc43)[C@@H](C(=O)N3CCCCCCC3)[C@H]12` . Value?
Result: 1.49

Task: Item: `O=C(CS)NCCCCCNC(=O)[C@H]1C[C@H]2C(=O)NCC(=O)N2[C@H]1c1cccc(OCCO)c1`
Result: -1.2

Task: Also check `CN(C)CCCCNC(=O)[C@@H]1C[C@@H]2C(=O)N[C@@H](CCCCN)C(=O)N2[C@@H]1c1ccc(O)cc1`
Result: 0.471

Task: What do you get for O=C1NC(=O)C2C1C=CC(C(O)c1ccc(I)cc1)N2Nc1ccccn1 (configuration not stated) ?
Result: 0.599

Task: Item: CCOc1ccc(N2C(=O)CSC2c2cccc([N+](=O)[O-])c2)cc1 (configuration not stated)
Result: 1.22

Task: Lookup CN1C(=O)C2C=CC(C(O)C=Cc3ccc([N+](=O)[O-])cc3)N(Nc3ccccc3)C2C1=O (configuration not stated)
Result: 1.25

Task: Note, next up: `C=CCN1Cc2ccccc2[C@@H]2OC(c3ccc(OCCCO)cc3)=N[C@]2(CCS(=O)(=O)c2ccccc2)C1=O`
Result: 1.55

Task: What about this compound? `C=CC[C@]1(C(=O)N2CCOCC2)N=C(c2ccc(OCCCO)cc2)O[C@H]1c1ccccc1N=[N+]=[N-]`
Result: 1.24

Task: What would you report for `CC#CC(=O)Oc1ccc(Br)cc1C=CC(=O)OCC` ?
Result: -0.497

Task: Same thing, different compound: O=C1C2C=CC(C(O)C=Cc3ccc([N+](=O)[O-])cc3)N(n3cnnc3)C2C(=O)N1Cc1ccccc1 (configuration not stated)
Result: 1.27

Task: Param item: `CN(C)CCCCCCNC(=O)[C@@H]1C[C@@H]2C(=O)N[C@@H](CCCC[N+](C)(C)C)C(=O)N2[C@@H]1c1ccc(O)cc1`
Result: -1.07

Task: Same question, CN1C(=O)C2C=CC(C(O)c3ccccc3)N(N3CCCCC3)C2C1=O (configuration not stated) this time
Result: 1.42

Task: Could you do the same for C=CCN(Cc1ccccc1)C(=O)C(c1cccs1)N(C(=O)/C=C\C(=O)O)c1ccc(CCOCCO)cc1 (configuration not stated) , please?
Result: -1.84

Task: Repeat for the following compound: CCCCCCCCCCC(O)C1C=CC2C(=O)NC(=O)C2N1Nc1ccc(Cl)cc1Cl (configuration not stated)
Result: -0.218

Task: Note, next up: `CCOC(=O)C[C@H]1[C@H](OC(=O)c2ccc(C(=O)c3ccccc3)cc2)[C@@H](NC(=O)Cc2ccc(OC)cc2)c2cc(OCCCO)ccc2N1C(=O)c1ccc2ccccc2n1`
Result: 0.298

Task: Queued: `CCCNC(=O)[C@@H]1c2ccccc2C(=O)N(Cc2ccccc2OC)[C@H]1c1ccc(CO)cc1`
Result: 0.901

Task: Would you mind doing `COC(=O)[C@@]1(CCC(=O)OC(C)(C)C)N=C(c2ccc(OCCCO)cc2)O[C@H]1c1ccccc1` as well?
Result: 0.124

From: PubChem BioAssay
